PROTOCOL_TEXT: NCI Yeast Anticancer Drug Screen. Data for the mec2-1 strain (AID 157)
TEST_SETTINGS: S. cerevisiae mec2-1 strain, at 50.0 µM, active compounds read high
Compounds without any hit were thinned out: in the full panel of roughly 79,000, 15% have a hit.
READOUT: growth inhibition (%)

* CCC(c1ccc(O)c(C2CCCCC2)c1)C(CC)c1ccc(OC(=O)c2ccccc2)c(C2CCCCC2)c1 (centres undefined) | -10.8
* COC1CCC(O)C(CO)O1 (centres undefined) | 99.6
* O=C1OC2(Cc3ccccc31)c1ccccc1-c1ccccc12 | 25.9
* Cc1ccc(N=C(N)NN=C(c2ccc(Cl)cc2)c2ccc(Cl)cc2)cc1 | 98.5
* CN(C)c1ccc(C2C=C(c3ccccc3)Oc3ccccc32)cc1 (centres undefined) | 97
* Cc1cc2cc3c(c(C(=O)O)c2o1)C(=O)c1ccc2ccccc2c1C3 | 99.5
* CC(=O)OC1(c2ccccc2)N=C(c2ccccc2)N=C1c1ccccc1 (centres undefined) | 19.1
* CCCCCCC(C)c1ccccc1O (centres undefined) (tested in a mixture with another compound) | 94
* CC(=O)c1c(C)n(C)c2c1nnc1ccccc12 | 36.9
* C[n+]1c(-c2cccc(OCCOCCOc3cccc(-c4c5cc(N)ccc5c5ccc(N)cc5[n+]4C)c3)c2)c2cc(N)ccc2c2ccc(N)cc21 | 82.7
* CCCCc1ccc2nc(C)cc(N/N=C/c3ccc4c(c3)OCO4)c2c1 | 22
* CCOC(=O)CCC(NC(=O)c1ccc(NC(OC)c2nc3cc(C(F)(F)F)ccc3nc2-c2ccccc2)cc1)C(=O)OCC (centres undefined) | 93.2
* [N-]=[N+]=Nc1ccc(SSCCC(=O)ON2C(=O)CCC2=O)cc1 | 98.8
* O=C(O)CSc1nc(-c2ccccc2)c(-c2ccccc2)n1-c1ccccn1 | 40.5
* c1cc[c]([Sn]([NH]c2ncnc3[nH]cnc23)([NH]c2ncnc3[nH]cnc23)[c]2ccccc2)cc1 | 47.6
* COc1ccc(N=N/N=c2\sc3cc(OC)ccc3n2C)cc1 | 5.1
* CN(C)c1nc(=NCc2ccccc2)ss1 | 54.7
* S=C(N/N=C/c1ccccn1)N1CCCCCC1 | 92.8
* Clc1cc(Cl)c(NN=C(c2ccccc2)c2ccccc2)c(Cl)c1 | 99.2
* O=C(C[n+]1ccc2ccccc2c1)c1ccc(-c2ccccc2)cc1 | 97.8
* CCOC(=O)CCc1ccc(OC)c(OC)c1 | 23
* CCCCCCCCCCCCCC(=O)N1CCOCC1 | 99.7
* CCCNC(=O)OCc1ccc(NCCN(CC)CC)c2c(=O)c3ccccc3sc12 | -24
* C=CCNC(=O)NC1=CSC2=NC(=O)C3(NN12)c1ccccc1-c1ccccc13 | 68.2
* NNC(=S)NN/C=C(\C=Nc1ccccc1)[N+](=O)[O-] | 68
* CNC(=N)c1ccc(NC(=N)c2ccc(NC(=O)c3ccc(C(=O)Nc4ccc(C(=N)Nc5ccc(C(=N)NC)cc5)cc4)cc3)cc2)cc1 | 51
* CNC(Cc1ccccc1)c1ccc(OC)c2ccccc12 (centres undefined) | 10.2
* C[CH2][Sn]([CH2]C)([O]C(=O)c1c(F)cccc1F)[O][Sn]([CH2]C)([CH2]C)[O]C(=O)c1c(F)cccc1F | 81.8
* CC(=O)O[C@]1(C(C)=O)CC[C@H]2[C@@H]3C[C@H](C)C4=CC(=O)NCC[C@]4(C)[C@H]3CC[C@@]21C | 94.6
* O=c1[nH]ccc(CNC23CC4CC(CC(C4)C2)C3)c1O | 21.4
* FC(F)(F)C(C1=NC(C(F)(F)F)(C(F)(F)F)N=C(N2CCOCC2)O1)C(F)(F)F | 71.8
* CCN(CC)CCNc1nc(N)c2nc(-c3ccccc3)c(-c3ccccc3)nc2n1 | 15.5
* Nc1nc(N)c2c(ccc3c2ccn3Cc2cccc([N+](=O)[O-])c2)n1 | 0.75
* O=C(NNc1nc(-c2ccccc2)cs1)Nc1ccccc1 | 90.1
* N#CSc1cc(SC#N)c2ccccc2c1N | 62.9
* Cc1ccc(O)c(Cc2ccccc2Cl)c1 | 99.3
* CCCCCCCCC1CCNCC1 | 87.7
* CNc1ccc(N)cc1 | 21.6
* Cc1ccc(S(=O)(=O)Oc2ccc3oc4c(CO)ccc(NCCN(C)C)c4c(=O)c3c2)cc1 | -17.6
* CCC(=O)OCC(=O)c1ccc(-c2ccccc2)cc1 | -3.7
* O=C1c2ccccc2NC(=O)C2C1C(c1ccccc1)CC2(O)c1ccccc1 (centres undefined) | 73.8
* COc1ccc2c(c1)CC[C@@H]1[C@@H]2CC[C@]2(C)/C(=N/OCCN3CCCCC3)CC[C@@H]12 | 71.2
* CCOC1Oc2ccccc2-c2nc(SC)ncc21 (centres undefined) | 19.9
* CCc1ccc(-c2ccccc2)cc1 | -2.95
